- tested-on: Carboxylic ester hydrolase (Equus caballus, UniProt Q9N1N9)
- Sequence (Q9N1N9 whole entry): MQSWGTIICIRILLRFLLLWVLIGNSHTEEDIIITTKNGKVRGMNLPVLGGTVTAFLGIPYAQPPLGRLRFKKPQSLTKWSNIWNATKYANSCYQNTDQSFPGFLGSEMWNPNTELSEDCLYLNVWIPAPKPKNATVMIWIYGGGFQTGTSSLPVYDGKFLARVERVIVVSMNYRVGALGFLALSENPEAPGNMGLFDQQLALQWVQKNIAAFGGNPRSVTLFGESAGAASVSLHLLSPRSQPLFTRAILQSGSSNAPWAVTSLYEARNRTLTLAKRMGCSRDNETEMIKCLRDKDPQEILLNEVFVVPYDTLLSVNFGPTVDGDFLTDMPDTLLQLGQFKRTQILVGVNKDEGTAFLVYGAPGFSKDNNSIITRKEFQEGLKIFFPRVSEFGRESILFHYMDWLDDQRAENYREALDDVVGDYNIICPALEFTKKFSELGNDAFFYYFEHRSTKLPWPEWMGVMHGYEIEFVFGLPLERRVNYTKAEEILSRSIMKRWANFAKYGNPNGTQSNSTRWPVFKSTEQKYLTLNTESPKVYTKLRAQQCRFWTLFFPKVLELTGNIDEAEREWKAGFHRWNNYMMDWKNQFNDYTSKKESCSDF
- method-description: Acetylcholinesterase Inhibition Assay
- measurement-parameters: pH 8; 30 °C
observable: pIC50
Scale: negative log10 of molar concentration, which is what pIC50 denotes.

In: Entry under review: COc1ccc2c3c1O[C@H]1C[C@@H](O)C=C[C@@]31CCN(C)C2 [galantamine] . Reported pIC50?
Out: 4.63

In: // lookup pIC50 for O=C1C(Cc2ccc(O)cc2)=C(Cc2ccc(O)cc2)C(=O)C1(c1ccc(O)cc1)C1(c2ccc(O)cc2)C(=O)C(Cc2ccc(O)cc2)=C(Cc2ccc(O)cc2)C1=O [Nostotrebin 6]
Out: 5.17
